assay: NCI Yeast Anticancer Drug Screen. Data for the bub3 strain (AID 167); details: S. cerevisiae bub3 mutant strain, at 5.0 µM (retest, dose inferred, filed as 0.5)
The panel holds about 79,000 compounds, 15% with a hit somewhere; the sample as a whole holds those more often. Calls of active or inactive are those of the source. Rule as the data show it: active = growth inhibition above about 70%; inactive = the rest.
Permitted responses: label 1 = active, label 0 = inactive

Recorded test outcome, item FC(F)(F)c1ccc(Nc2ccc(C(F)(F)F)cc2)cc1
label 0

Same question for Cc1ccc(S(=O)(=O)N/N=C/Cc2ccccc2)cc1 please.
label 0

Same question for COc1ccc(C2SC(C)C(=O)N2c2nc(-c3nc(-c4ccc(Cl)cc4)cs3)cs2)cc1 (configuration not stated) please.
label 0

Same question for COC(=O)[C@@H](O)[C@]1(C(=O)OC)C2O[C@@H](OC)[C@@H]1CCCCCC[C@H]2O please.
label 0

Same question for CC(C(=O)c1ccc2cc(Br)c3ccccc3c2c1)N(C)C (configuration not stated) please.
label 0

Same question for O=C1/C(=N/N=C(c2ccccc2)c2ccccc2)c2ccccc2-c2ccccc21 please.
label 0

Same question for C[C@H](CCC1=NCCN1)[C@H]1CC[C@H]2[C@@H]3CC[C@@H]4C[C@H](O)CC[C@]4(C)[C@H]3C[C@H](O)[C@]12C please.
label 0

Same question for CCCCCCCN1C(=O)c2ccccc2S1(=O)=O please.
label 0

Same question for Oc1cc(F)cc2cccnc12 please.
label 1

Same question for CN1C/C(=C\c2ccccc2)C(=O)C(c2ccccc2)C1 (configuration not stated) please.
label 0

Same question for Nc1ncnc2c1ncn2CC(O)CN(CCO)CCO (configuration not stated) (tested in a mixture with another compound) please.
label 0

Same question for N#Cc1cc([N+](=O)[O-])ccc1NC(=O)/C(=N/N)C(C(=O)c1ccc(Cl)c(Cl)c1)C1OC(=O)c2ccccc21 (configuration not stated) please.
label 0

====

assay: NCI Yeast Anticancer Drug Screen. Data for the bub3 strain (AID 167); conditions: S. cerevisiae bub3 mutant strain, at 5.0 µM (retest, dose inferred, filed as 0.5), stronger effect = higher value
The panel holds about 79,000 compounds, 15% with a hit somewhere; the sample as a whole holds those more often.
So I've got a bunch of compounds here, and I need their growth inhibition values.
Use % as the unit, but write only the number.

Return reported growth inhibition; argument: CCCCCCC(Sc1n[nH]c(=O)[nH]c1=O)C(=O)OCC (stereo not given)
2

Same question for CCOC(=O)C1=C(N)OC(c2ccccc2)=C(C#N)C1c1ccc(C)cc1 (stereo not given) please.
-4

Same question for CC1(C)CC(=O)C(/C=N/c2nc(-c3cccc([N+](=O)[O-])c3)cs2)=C(O)C1 please.
20

Same question for CCOc1cnn(-c2ccccc2)c(=O)c1SCc1ccc(Cl)c(Cl)c1 please.
4

Same question for c1ccc(OCC2c3ccccc3Nc3ccccc32)cc1 please.
92

====

assay: NCI Yeast Anticancer Drug Screen. Data for the rad50 strain (AID 155);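 also: 0% = growth of vehicle-only cultures of the same strain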; settings: S. cerevisiae rad50 strain growth inhibition; at 50.0 µM; stronger effect = higher value
The panel holds about 79,000 compounds, 15% with a hit somewhere; the sample as a whole holds those more often.
EXPERIMENTAL ENDPOINT: growth inhibition (%)
Use % as the unit, but write only the number.

Return reported growth inhibition; argument: Clc1ccc(CSCCc2ccncc2)cc1Cl
98.7

Same question for c1ccc([P+](c2ccccc2)(c2ccccc2)C2CCCC2)cc1 please.
96.8

Same question for CCCCCCCCNc1ccc(Cl)cc1 please.
91.8

Same question for COc1ccc(C(=O)Nc2ccc(Cl)cc2)cc1 please.
3.75

Same question for Cn1cnc2[nH]c(Cl)nc(=S)c21 please.
1.05

Same question for COc1ccc(C2c3cc4c(cc3OC(O)(CO)C2C(=O)O)OCO4)cc1 (stereo not given) (tested in a mixture with another compound) please.
53.5

Same question for COc1ccccc1C1(c2ccccc2OC)OC(=O)c2ccccc21 please.
77.8

Same question for O=C([O][Sb]([O]C(=O)C(Cl)(Cl)Cl)([c]1ccccc1)([c]1ccccc1)[c]1ccccc1)C(Cl)(Cl)Cl please.
41

Same question for CCOC(=O)CNC(=O)CNC(=O)CNC(c1ccccc1)(c1ccccc1)c1ccccc1 please.
66.5

Same question for Cc1nc(N)sc1N=Nc1cc(Cl)c([N+](=O)[O-])cc1Cl please.
38

Same question for S=P([S][Sn]([S]P(=S)(c1ccccc1)c1ccccc1)([c]1ccccc1)[c]1ccccc1)(c1ccccc1)c1ccccc1 please.
34.9

Same question for COC(=O)c1nnn(-c2cc(Cl)ccc2Cl)c1C(=O)c1ccc(Cl)c(Cl)c1 please.
98.8

Same question for COC(=O)/C=C(\NC1CC(OC2C[C@](O)(C(C)=O)Cc3c(O)c4c(c(O)c32)C(=O)c2c(OC)cccc2C4=O)OC(C)C1O)C(=O)OC (stereo not given in full) please.
97.5

Same question for COc1ccc(NC(=S)N/N=C/c2cccc(C)n2)cc1 please.
67.4

Same question for CCOC(=O)C(=Cc1ccccc1)C(=O)OCC please.
73

Same question for Cc1ccc2c(c1C)-c1c(ccc(C)c1C)C(=O)C2=O please.
99.3

Same question for CCc1[nH]c2ccccc2c1N1C(=O)CC2(CCN(Cc3ccccc3)CC2)CC1=O please.
32.1

Same question for O=c1c2cccc3cccc(c4oc5c6cccc7cccc(c(=O)c5c14)c76)c32 please.
95.5

Same question for CCCCC(O)CCCC please.
4.55

Same question for CSc1c(C)n([O-])c2cc(Cl)c(Cl)cc2[n+]1=O please.
79.8

====

assay: NCI Yeast Anticancer Drug Screen. Data for the cln2 rad14 strain (AID 165);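 also: 0% = growth equal to vehicle treated cultures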; details: S. cerevisiae cln2 rad14 strain, at 50.0 µM (retest, dose inferred, filed as 5.0)
About 79,000 compounds went through this panel and 15% of them were active in at least one assay; those are over-represented in the sample as a whole. Active and inactive are the calls of the source. Cut-off read from the data, not from the text of the source: active = growth inhibition above about 70%; inactive = the rest.
Permitted responses: active, inactive

Recorded test outcome, item O=C1C=C(c2ccccc2)O/C1=C/C(=O)c1ccc(Cl)cc1
inactive

Same question for COC(=O)C1C(O)C(C)C(=O)C(C)/C=C\C=C(C)C(=O)Nc2c(C)c(OC(C)=O)c3c(c2O)C(=O)C(C)=C2OCOC(=C23)C(C)=CC(C)(O)C(O)C(C)C1O (stereo not drawn) please.
active

Same question for S=C(Nc1ccc(Cl)c(Cl)c1)N1c2ccccc2-n2cccc2C1c1cccnc1 (stereo not drawn) please.
active

====

test: NCI Yeast Anticancer Drug Screen. Data for the cln2 rad14 strain (AID 165);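 also: 0% = growth equal to vehicle treated cultures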; conditions: S. cerevisiae cln2 rad14 strain, at 50.0 µM, stronger effect = higher value
About 79,000 compounds went through this panel and 15% of them were active in at least one assay; those are over-represented in the sample as a whole.
So I've got a bunch of compounds here, and I need their growth inhibition values.
Use % as the unit, but write only the number.

Return reported growth inhibition; argument: CS(=O)(=O)c1ccc(C[N+]23CN4CN(CN(C4)C2)C3)cc1
43.4

Same question for COCc1ccc([N+](=O)[O-])o1 please.
7.65

Same question for O=C(C[n+]1ccc2ccccc2c1)c1ccc2ccc3ccccc3c2c1 please.
98.2

Same question for CC1C(C(=O)O)CC([N+](=O)[O-])C(Cl)C1[N+](=O)[O-] (stereo unspecified) please.
35.4

Same question for COC(=O)c1ccccc1C=C(c1ccc([N+](=O)[O-])cc1)c1ccc([N+](=O)[O-])cc1 please.
95.1

Same question for Nc1c(C(=O)O)cccc1[N+](=O)[O-] please.
23.2

====

assay: NCI Yeast Anticancer Drug Screen. Data for the mlh1 rad18 strain (AID 175); details: S. cerevisiae mlh1 rad18 strain growth inhibition; at 5.0 µM (retest, dose inferred, filed as 0.5)
About 79,000 compounds went through this panel and 15% of them were active in at least one assay; those are over-represented in the sample as a whole. Activity calls are given as the source filed them. Cut-off read from the data, not from the text of the source: active = growth inhibition above about 70%; inactive = the rest.
Permitted responses: Y (active), N (inactive)

Recorded test outcome, item CC(=O)c1c(-c2ccc(Cl)cc2)c(-c2ccc(Cl)cc2)nn(CCO)c1=O
N

Same question for CCCCCCCCCCCCCCCC[N+](C)(C)CCl please.
Y

Same question for Fc1ccc(NC(=S)SCc2ccc(Cl)c(Cl)c2)c(F)c1 please.
N

Same question for S=C(Nc1cc(Cl)cc(Cl)c1)SCc1ccccc1 please.
N

Same question for O=C(CCCN1CCN2Cc3[nH]c4ccccc4c3CC2C1)c1ccc(F)cc1 (stereo not drawn) please.
N

Same question for CC(O)c1c2c(cc3c1CC1(C3)Cc3cc4c(c(C(C)O)c3C1)CCC4)CCC2 (stereo not drawn) please.
N

Same question for O=C1C=C(c2ccccc2)O/C1=C/C(=O)c1ccc(Cl)cc1 please.
N

Same question for CC1CCC2(CC1)NC1=C(CC(C)CC1)C1=C2CC(C)CC1 (stereo not drawn) please.
N

Same question for Cc1ccc(-n2c(CSc3ccc(Cl)cc3)nnc2SCc2nc3ccccc3[nH]2)cc1 please.
N

Same question for COc1ccc(OC(C)=O)c2c1CCC=CC2=O please.
N

Same question for CCCCCCCC[N+](C)(C)Cc1ccc(C[N+](C)(C)CCCCCCCC)cc1 please.
N

Same question for CCCCCCCCCCCC[N+](C)(CCS(=O)(=O)[O-])Cc1ccccc1 (stereo not drawn) please.
N

Same question for CCCCCCC(Sc1n[nH]c(=O)[nH]c1=O)C(=O)OCC (stereo not drawn) please.
N
